target: human α1D‐adrenoceptor (full length) (Homo sapiens); construct: human α1D‐adrenoceptor (full length) were used; expressed in transfected cells; host or cells: CHO-K1; assay: ^3H‐prazosin whole‐cell radioligand binding, CHO‐α1D cells
Labelling field: enter Satisfied if recorded Kd is less than 6 µM. Enter Not satisfied if it equals or exceeds that cut-off.

Worked examples follow.
CN[C@@H](C)[C@H](O)c1ccccc1 : Not satisfied
CN1C[C@H](C(=O)N[C@]2(C)O[C@@]3(O)[C@@H]4CCCN4C(=O)[C@H](Cc4ccccc4)N3C2=O)C[C@@H]2c3cccc4[nH]cc(c34)C[C@H]21 [Dihydroergotamine] : Satisfied
C=CCc1ccccc1OC(C)C1=NCCN1 (centres unmarked) : Satisfied

# ---- query molecule ----
Does this molecule meet the criterion Kd < 6 µM? "Cc1cccc(C)c1N=C1NCCCS1"
Not satisfied

###

molecular target: human α1B‐adrenoceptor (Homo sapiens, UniProt P35368); construct: expressed in transfected cells; host or cells: CHO-K1; experiment: ^3H‐prazosin whole‐cell radioligand binding, CHO‐α1B cells; conditions: Log KD, ^3H‐prazosin binding
Sequence (P35368 whole entry): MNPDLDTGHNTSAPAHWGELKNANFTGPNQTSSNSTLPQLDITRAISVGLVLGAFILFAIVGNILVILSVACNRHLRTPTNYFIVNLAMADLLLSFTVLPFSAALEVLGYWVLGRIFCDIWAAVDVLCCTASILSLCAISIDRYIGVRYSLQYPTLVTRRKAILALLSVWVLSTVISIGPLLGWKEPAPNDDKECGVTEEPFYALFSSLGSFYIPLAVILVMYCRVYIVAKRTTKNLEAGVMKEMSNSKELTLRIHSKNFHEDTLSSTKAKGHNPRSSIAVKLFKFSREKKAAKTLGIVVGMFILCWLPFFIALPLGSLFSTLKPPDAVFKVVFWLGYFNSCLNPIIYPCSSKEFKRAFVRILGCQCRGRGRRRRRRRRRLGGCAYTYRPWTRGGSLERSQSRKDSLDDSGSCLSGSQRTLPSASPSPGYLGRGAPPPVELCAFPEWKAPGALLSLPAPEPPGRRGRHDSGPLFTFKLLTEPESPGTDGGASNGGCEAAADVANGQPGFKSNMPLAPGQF
# key: entry, value: pKd
Scale: negative log10 of molar concentration, which is what pKd denotes.

// known answers, use as guide
CC(Cc1ccc(O)cc1)NCC(O)c1cc(O)cc(O)c1 (stereo not shown) : 3.91
Cc1cccc(C(C)c2cnc[nH]2)c1C (stereo not shown) : 4.84
Cc1cc(C(C)(C)C)cc(C)c1CC1=NCCN1 : 5.16

Okay, next one:
For the compound shown here, "Cc1cccc([C@H](C)c2cnc[nH]2)c1C" , give the reported pKd.
5.04

###

target: human α1A‐adrenoceptor (Homo sapiens, UniProt P35348); construct: expressed in transfected cells; host or cells: CHO-K1; experiment: ^3H‐prazosin whole‐cell radioligand binding, CHO‐α1A cells; settings: Log KD α1A, ^3H‐prazosin whole cell binding, CHO‐α1A cells; given as log KD (negative); mean ± SEM
Sequence (P35348 whole entry): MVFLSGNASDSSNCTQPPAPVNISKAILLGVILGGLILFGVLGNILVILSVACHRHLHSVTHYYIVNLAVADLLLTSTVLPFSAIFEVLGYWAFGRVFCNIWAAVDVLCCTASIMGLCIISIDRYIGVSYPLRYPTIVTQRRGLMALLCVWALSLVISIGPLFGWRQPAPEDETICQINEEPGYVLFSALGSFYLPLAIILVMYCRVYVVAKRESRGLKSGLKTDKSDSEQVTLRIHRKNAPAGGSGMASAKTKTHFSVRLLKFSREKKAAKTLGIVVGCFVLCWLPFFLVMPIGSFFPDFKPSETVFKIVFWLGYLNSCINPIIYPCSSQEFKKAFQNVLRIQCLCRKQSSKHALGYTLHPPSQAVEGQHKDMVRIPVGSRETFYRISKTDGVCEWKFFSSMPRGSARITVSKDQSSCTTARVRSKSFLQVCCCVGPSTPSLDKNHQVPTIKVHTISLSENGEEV
Labelling field: enter true (1) if recorded Kd is less than 4 µM. Enter false (0) if it equals or exceeds that cut-off.

Worked examples follow.
Brc1c(NC2=NCCN2)ccc2nccnc12 [UK14304] : true (1)
c1ccc2c(CC3=NCCN3)cccc2c1 [Naphazoline] : true (1)
N=C(N)N/N=C/c1c(Cl)cccc1Cl [Guanabenz] : true (1)
Brc1c(NC2=NCCN2)ccc2nccnc12 [Brimonidine] : false (0)
C1COC(NC(C2CC2)C2CC2)=N1 [Rilmenidine] : false (0)

Does this compound meet the criterion Kd < 4 µM? CCNCC(O)c1cccc(O)c1 (stereo not drawn) [Etilefrine]
false (0)

Does this compound meet the criterion Kd < 4 µM? NCC(O)c1ccc(O)cc1 (stereo not drawn) [Octopamine]
false (0)

Does this compound meet the criterion Kd < 4 µM? COc1ccc(OC)c(C(O)C(C)N)c1 (stereo not drawn) [Methoxamine]
false (0)

Does this compound meet the criterion Kd < 4 µM? Clc1ccc2nsnc2c1NC1=NCCN1 [Tizanidine]
true (1)

###

Molecular target: human α1D‐adrenoceptor (full length) (Homo sapiens)
Construct: human α1D‐adrenoceptor (full length) were used; expressed in transfected cells; host or cells: CHO-K1
Sequence (P25100 1-572): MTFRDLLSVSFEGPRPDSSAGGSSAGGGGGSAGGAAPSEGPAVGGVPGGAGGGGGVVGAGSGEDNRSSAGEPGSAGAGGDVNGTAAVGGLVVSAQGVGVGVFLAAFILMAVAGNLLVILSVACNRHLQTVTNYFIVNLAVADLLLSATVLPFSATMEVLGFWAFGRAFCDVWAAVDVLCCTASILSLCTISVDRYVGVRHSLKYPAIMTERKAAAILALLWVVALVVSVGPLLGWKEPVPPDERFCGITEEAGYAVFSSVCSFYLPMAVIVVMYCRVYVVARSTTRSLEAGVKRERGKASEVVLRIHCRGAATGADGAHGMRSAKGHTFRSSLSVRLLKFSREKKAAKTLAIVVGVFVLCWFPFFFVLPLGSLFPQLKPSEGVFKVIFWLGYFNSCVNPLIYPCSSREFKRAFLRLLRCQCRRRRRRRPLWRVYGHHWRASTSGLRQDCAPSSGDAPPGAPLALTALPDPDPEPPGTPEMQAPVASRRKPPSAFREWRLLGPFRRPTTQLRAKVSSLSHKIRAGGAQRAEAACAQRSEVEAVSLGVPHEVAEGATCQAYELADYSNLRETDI
Test: ^3H‐prazosin whole‐cell radioligand binding, CHO‐α1D cells
Settings: CHO‐α1D cells; given as log KD (negative); mean ± SEM; 'early plateau' = specific binding not fully inhibited
# key: entry, value: Log KD α1D, ^3H‐prazosin whole cell binding
Just the number, please.

CS(=O)(=O)Nc1c(O)ccc2c1CCCC2C1=NCCN1 (stereo not shown) : −3.92
CCc1cccc(CC)c1NC1=NCCN1 : −5.24
C1=C(c2cnc[nH]2)c2ccsc2CC1 : −4.30
Cc1sc(C)c2c1CCC=C2c1cnc[nH]1.O=C(O)/C=C\C(=O)O : −5.91

For the compound shown here, "COCc1c(Cl)ccc2c1CC[C@H]2c1ncc[nH]1" , give the reported Log KD α1D, ^3H‐prazosin whole cell binding.
−5.24

For the compound shown here, "C=CCN1CCc2nc(N)sc2CC1" , give the reported Log KD α1D, ^3H‐prazosin whole cell binding.
−4.49
